Can you tell me IC50 for the items I'm about to list?
# TARGET_DESC: GR (human recombinant) (Homo sapiens, UniProt P04150)
# Sequence (P04150 whole entry): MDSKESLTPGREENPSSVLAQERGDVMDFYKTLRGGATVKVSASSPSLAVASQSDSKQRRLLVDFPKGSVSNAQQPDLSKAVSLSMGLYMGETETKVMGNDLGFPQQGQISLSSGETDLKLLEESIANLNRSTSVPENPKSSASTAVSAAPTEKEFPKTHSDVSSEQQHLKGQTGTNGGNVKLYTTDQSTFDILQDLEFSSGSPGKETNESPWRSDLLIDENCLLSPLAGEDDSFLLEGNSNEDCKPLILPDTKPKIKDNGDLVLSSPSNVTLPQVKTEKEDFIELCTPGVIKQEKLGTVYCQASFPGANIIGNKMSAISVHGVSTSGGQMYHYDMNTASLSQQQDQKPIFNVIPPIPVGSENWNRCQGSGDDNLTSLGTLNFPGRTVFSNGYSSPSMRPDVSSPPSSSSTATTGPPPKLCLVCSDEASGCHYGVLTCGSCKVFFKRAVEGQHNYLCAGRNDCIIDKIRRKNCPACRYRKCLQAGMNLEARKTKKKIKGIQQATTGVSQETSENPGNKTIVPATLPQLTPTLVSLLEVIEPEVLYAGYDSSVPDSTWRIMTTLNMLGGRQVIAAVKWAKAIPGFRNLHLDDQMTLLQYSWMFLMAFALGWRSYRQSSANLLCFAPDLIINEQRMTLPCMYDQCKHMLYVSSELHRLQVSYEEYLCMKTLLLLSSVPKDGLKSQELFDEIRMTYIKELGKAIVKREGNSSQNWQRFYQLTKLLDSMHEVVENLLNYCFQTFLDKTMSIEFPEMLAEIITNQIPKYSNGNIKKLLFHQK
# ASSAY_PROCEDURE: GR competitive assay, fluorescence polarization with Fluormone GS1
# CONDITION_DETAILS: tested up to 10 uM

Asked: Give me measured IC50, please, for this compound: `CCCN(C)c1cc(-n2c(S)nnc2-c2cc(C(C)C)c(O)cc2O)ccc1OC`
Given back: > 10 µM

Asked: Given the compound `CC(C)c1cc(-c2nnc(O)n2-c2ccc3c(ccn3C)c2)c(O)cc1O` , write its reported IC50.
Given back: > 10 µM
